# System: VCaP cells
# protocol: VCaP growth inhibition assay
# Format: cell-based
# assay.setup: 30 pM R1881, 9 days, CTG
experimental.endpoint: IC50

Use these answered entries as a reference point.
compound="CC(=O)N1CCc2c(c(-c3cccc4cc(-c5cnc(CCN(C)c6ncc(C(=O)NC7C(C)(C)C(Oc8ccc(C#N)c(Cl)c8)C7(C)C)cn6)nc5)ncc34)nn2C2CCOCC2)C1 (centres unmarked)" result_value="1 to 100 nM"
compound="COc1cc(OC2C(C)(C)C(NC(=O)c3ccc(N4CC(N5CCCC6(CCC(n7nc(N8CCCc9cc(-c%10cnn(C)c%10)c(C(F)F)cc98)c8c7CCN(C(C)=O)C8)CC6)C5)C4)cc3)C2(C)C)ccc1C#N (centres unmarked)" result_value="1 to 100 nM"
compound="CC(=O)N1CCc2c(c(-c3cccc4cc(-c5cnn(CC6CC7(C6)CN(c6ncc(C(=O)NC8C(C)(C)C(Oc9ccc(C#N)c(Cl)c9)C8(C)C)cn6)C7)c5)ncc34)nn2C)C1 (centres unmarked)" result_value="0.1 to 1 nM"
compound="Cn1cc(-c2cc3cccc(-c4cc(C5CCN(CC6CCN(c7ncc(C(=O)NC8C(C)(C)C(Oc9ccc(C#N)c(Cl)c9)C8(C)C)cn7)CC6)CC5)c5c(c4)n(C)c(=O)n5C)c3cn2)cn1 (centres unmarked)" result_value="0.1 to 1 nM"

# evaluate next
Give VCaP cells IC50 for CC(=O)N1CCc2c(c(N3CCCc4ccc(C(F)F)cc43)nn2C2CCN(CC3CCN(c4ncc(C(=O)NC5C(C)(C)C(Oc6ccc(C#N)c(Cl)c6)C5(C)C)cn4)CC3)CC2)C1 (centres unmarked) ≤ 0.1 nM

----------
# System: VCaP cells
# protocol: VCaP growth inhibition assay
# Type: cell-based
# assay.setup: 30 pM R1881, 9 days, CTG
experimental.endpoint: IC50

Give VCaP cells IC50 for COc1cc(OC2C(C)(C)C(NC(=O)c3ccc(N4CCC(N5CCC6(CCC(n7nc(N8CCCc9cc(-c%10cnn(C)c%10)c(C(F)F)cc98)c8c7CCN(C(C)=O)C8)CC6)CC5)CC4)cc3)C2(C)C)ccc1C#N (stereo not drawn) [Compound 300] ≤ 0.1 nM

Give VCaP cells IC50 for COc1cc(OC2C(C)(C)C(NC(=O)c3ccc(N4CCC(CCc5ccc(-c6cc7c(cc6C(F)F)N(c6nn(C8CCOCC8)c8c6CN(C(C)=O)CC8)CCC7)cc5)CC4)cc3)C2(C)C)ccc1C#N (stereo not drawn) [Compound 248] 0.1 to 1 nM

Give VCaP cells IC50 for Cn1c(=O)n(C)c2cc(-c3cccc4cc(-c5ccc(CCC6CCN(c7ncc(C(=O)NC8C(C)(C)C(Oc9ccc(C#N)c(Cl)c9)C8(C)C)cn7)CC6)nc5)ncc34)ccc21 (stereo not drawn) [Compound 232] > 100 nM

----------
# Tested on: VCaP cells
# protocol: VCaP growth inhibition assay
# Assay type: cell-based
# assay.setup: 30 pM R1881, 9 days, CTG
pIC50: −log10 of the molar value.
experimental.endpoint: pIC50

Use these answered entries as a reference point.
compound="CC(=O)N1CCc2c(c(N3CCCc4cc(-c5cnn(C)c5)c(C(F)F)cc43)nn2C2CN(C3CCN(c4ncc(C(=O)NC5C(C)(C)C(Oc6ccc(C#N)c(Cl)c6)C5(C)C)cn4)CC3)C2)C1 (stereo not drawn) [Compound 11]" result_value="9.00 to 10.00"
compound="CNC(=O)N1CCc2c(c(N3CCCc4cc(-c5cnn(C)c5)c(C(F)F)cc43)nn2C2CCN(C(=O)COCCOCCN3CCN(c4ncc(C(=O)NC5C(C)(C)C(Oc6ccc(C#N)c(Cl)c6)C5(C)C)cn4)CC3)CC2)C1 (stereo not drawn) [Compound 103]" result_value="9.00 to 10.00"
compound="CC(=O)N1CCc2c(c(N3CCCc4cc(-c5cnn(C)c5)c(C(F)F)cc43)nn2C2CCN(C[C@H]3CCN(c4ncc(C(=O)NC5C(C)(C)C(Oc6ccc(C#N)c(Cl)c6)C5(C)C)cn4)C[C@H]3C)CC2)C1 (stereo partly drawn) [Compound 364]" result_value="≥ 10.00"
compound="CC(=O)N1CCc2c(c(Nc3ccc(-c4cnn(C)c4)cc3F)nn2C2CN(CCC3CCN(c4ncc(C(=O)NC5C(C)(C)C(Oc6ccc(C#N)c(Cl)c6)C5(C)C)cn4)CC3)C2)C1 (stereo not drawn) [Compound 3]" result_value="< 7.00"
compound="CC(=O)N1CCc2c(c(-c3cccc4cc(-c5ccc(C(=O)NC6CCN(c7ncc(C(=O)NC8C(C)(C)C(Oc9ccc(C#N)c(Cl)c9)C8(C)C)cn7)CC6)nc5)ncc34)nn2C2CCOCC2)C1 (stereo not drawn) [Compound 180]" result_value="≥ 10.00"

Quick one: pIC50 of CC(=O)N1CCc2c(c(N3CCCc4cc(-c5cnn(C)c5)c(C(F)F)cc43)nn2CCOC2CCN(c3ncc(C(=O)NC4C(C)(C)C(Oc5ccc(C#N)c(Cl)c5)C4(C)C)cn3)CC2)C1 (stereo not drawn) [Compound 51] ? 9.00 to 10.00

Quick one: pIC50 of CC(=O)N1CCc2c(c(N3CCCc4cc(-c5cnn(C)c5)c(C(F)F)cc43)nn2C2CCN(CC#Cc3ncc(C(=O)NC4C(C)(C)C(Oc5ccc(C#N)c(Cl)c5)C4(C)C)cn3)CC2)C1 (stereo not drawn) [Compound 19] ? 9.00 to 10.00

Quick one: pIC50 of COc1cc(OC2C(C)(C)C(NC(=O)c3ccc(N4CC5(CCC(N6CCC(n7nc(N8CCCc9cc(C#N)c(C)cc98)c8c7CCN(C(C)=O)C8)CC6)CC5)C4)cc3)C2(C)C)ccc1C#N (stereo not drawn) [Compound 455] ? 9.00 to 10.00

Quick one: pIC50 of CN1C(=O)CCc2cc(N3CCCc4cc(-c5ccc(CCC6CCN(c7ncc(C(=O)NC8C(C)(C)C(Oc9ccc(C#N)c(Cl)c9)C8(C)C)cn7)CC6)nc5)c(C(F)F)cc43)ccc21 (stereo not drawn) [Compound 239] ? 7.00 to 9.00

Quick one: pIC50 of CC(=O)N1CCc2c(c(N3CCCc4cc(-c5cnn(C)c5)c(C(F)F)cc43)nn2C2CCN(CC3C(C)CN(c4ncc(C(=O)NC5C(C)(C)C(Oc6ccc(C#N)c(C)c6C)C5(C)C)cn4)CC3C)CC2)C1 (stereo not drawn) [Compound 461] ? ≥ 10.00

Quick one: pIC50 of CC(=O)N1CCc2c(c(N3CCCc4cc(-c5cnn(C)c5)c(C(F)F)cc43)nn2C2CCN(CCc3ncc(C(=O)NC4C(C)(C)C(Oc5ccc(C#N)c(Cl)c5)C4(C)C)cn3)CC2)C1 (stereo not drawn) [Compound 92] ? < 7.00

----------
# Tested on: VCaP cells
# protocol: VCaP growth inhibition assay
# Assay type: cell-based
# assay.setup: 30 pM R1881, 9 days, CTG
Reported IC50 is given for each of the following compounds.

Use these answered entries as a reference point.
compound="CC(=O)N1CCc2c(c(N3CCCc4cc(-c5cnn(C)c5)c(C(F)F)cc43)nn2C2CCN(Cc3cn(CCc4ncc(C(=O)NC5C(C)(C)C(Oc6ccc(C#N)c(Cl)c6)C5(C)C)cn4)nn3)CC2)C1 (centres unmarked) [Compound 15]" result_value="> 100 nM"
compound="COc1cc(OC2C(C)(C)C(NC(=O)c3ccc(OC4CC(N5CCC(n6nc(N7CCCc8cc(-c9cnn(C)c9)c(C(F)F)cc87)c7c6CCN(C(C)=O)C7)CC5)C4)cc3)C2(C)C)ccc1C#N (centres unmarked) [Compound 375]" result_value="0.1 to 1 nM"

Quick one: IC50 of CC(=O)N1CCc2c(c(N3CCCc4cc(-c5cnn(C)c5)c(C(F)F)cc43)nn2C2CCN(CCOc3ncc(C(=O)NC4C(C)(C)C(Oc5ccc(C#N)c(Cl)c5)C4(C)C)cn3)CC2)C1 (centres unmarked) [Compound 89] ? 0.1 to 1 nM

Quick one: IC50 of COc1cc(OC2C(C)(C)C(NC(=O)c3ccc(OC4CC5(C4)CC(N4CCC(n6nc(N7CCCc8cc(-c9cnn(C)c9)c(C(F)F)cc87)c7c6CCN(C(C)=O)C7)CC4)C5)cc3)C2(C)C)ccc1C#N (centres unmarked) [Compound 386] ? 0.1 to 1 nM

Quick one: IC50 of COc1cc(OC2C(C)(C)C(NC(=O)c3ccc(N4CCN(C5CCN(c6ccc(-c7cc8cccc(-c9nn(C%10CCOCC%10)c%10c9CN(C(C)=O)CC%10)c8cn7)cn6)CC5)CC4)cc3)C2(C)C)ccc1C#N (centres unmarked) [Compound 321] ? ≤ 0.1 nM

----------
# Test system: VCaP cells
# protocol: VCaP growth inhibition assay
# Type: cell-based
# assay.setup: 30 pM R1881, 9 days, CTG
pIC50: −log10 of the molar value.
experimental.endpoint: pIC50

Use these answered entries as a reference point.
compound="COc1cc(OC2C(C)(C)C(NC(=O)c3ccc(N4CCC(N5CCC(n6nc(N7CCCc8cc(-c9cnn(C)c9)c(C(F)F)cc87)c7c6CCN(C(C)=O)C7)CC5)C(C)C4)cc3)C2(C)C)ccc1C#N (centres unmarked)" result_value="9.00 to 10.00"
compound="COc1cc(OC2C(C)(C)C(NC(=O)c3ccc(N4CC(N5CCC6(CCC(n7nc(N8CCCc9cc(-c%10cnn(C)c%10)c(C(F)F)cc98)c8c7CCN(C(C)=O)C8)CC6)C5)C4)cc3)C2(C)C)ccc1C#N (centres unmarked) [Compound 402]" result_value="≥ 10.00"
compound="COc1cc(OC2C(C)(C)C(NC(=O)c3ccc(N4CCC(N5CCC(n6nc(N7CCCc8cc(-c9cnn(C)c9)c(C(F)F)cc87)c7c6CCN(C(C)=O)C7)CC5)CC4)cc3)C2(C)C)ccc1C#N (centres unmarked)" result_value="≥ 10.00"
compound="COc1cc(OC2C(C)(C)C(NC(=O)c3ccc(N4CCC(C)(N5CCC(n6nc(N7CCCc8cc(-c9cnn(C)c9)c(C(F)F)cc87)c7c6CCN(C(C)=O)C7)CC5)CC4)cc3)C2(C)C)ccc1C#N (centres unmarked)" result_value="≥ 10.00"

# evaluate next
Give VCaP cells pIC50 for CC(=O)N1CCc2c(c(N3CCc4cc(-c5cnn(C)c5)c(C(F)F)cc43)nn2C2CCN(CC3CCN(c4ncc(C(=O)NC5C(C)(C)C(Oc6ccc(C#N)c(Cl)c6)C5(C)C)cn4)CC3)CC2)C1 (centres unmarked) 9.00 to 10.00
